System: GH3-TRE-Luc cell line
Conditions: read-out: AC50 (uM) modified / 1000; Tox21_110001=Tox21_201428; viability, 1 nM T3 present, 24 h
result.type: CC50 (µM)
State the answer as a number, implicitly in µM.

Request: Report CC50 for O=c1c(-c2ccc(O)cc2)coc2cc(O)cc(O)c12 [Genistein] please.
Response: 38.3

###

Experiment: in vitro
Conditions: rat, gh3-tre-luc cells, AC50 (uM) modified / 1000, Tox21_110001=Tox21_300811; viability, 1 nM T3 present, 24 h
result.type: CC50 at 24 h (µM)
Lab book: enter the figure in µM, no units written.

Request: Could you share which CC50 at 24 h value was measured for CCOP(=S)(OCC)SCn1c(=O)oc2cc(Cl)ccc21 ?
Response: 80.4

Attribution: paper PMC6792352
